B1: HDV Ribozyme (parent)
chain: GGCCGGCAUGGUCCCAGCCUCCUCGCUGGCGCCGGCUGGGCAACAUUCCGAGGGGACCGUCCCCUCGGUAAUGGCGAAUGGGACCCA

Variants of: B1
protocol: self-cleavage, relative activity (ratio to wild type); higher = more cleavage; co-transcriptional
Returns one of Satisfied or Not satisfied; Satisfied when self-cleavage is >= 0.3.

> print(dat)
                              sequence.text  assigned.class
1  GGCCGGCAUGGUCCCAGCCUCCUCGCUGGCGCCGGCUGGGCAACAUUCCCAGGGGACCGUCCCCUCAGUAAUGGCGAAUGGGACCCA       Satisfied
2  GGCCGGCAUGGUCCAAGCCUCCUCGCUGGCGCCGGCUGGGCAACAUUCCGAGGGGACCGUCCCCUCGGUAAUGACGAAUGGGACCCA   Not satisfied
3  GGCCGACACGGUCCCAGCCUCCUCGCUGGCGCCGGCUGGGCAACAUUCCGAGGGGACCGUCCCCUCGGUAAUGGCGAAUGGGACCCA       Satisfied

[Q] Given GGCCGGCAUGGUCCGAGCCUCCUCGCUGGCGCCGGCUGGGAAACAUUCCGAGGGGACCGUCCCCUCGGUAAUGGCGAAUGGGACCCA , state whether its self-cleavage is at least 0.3.
[A] Satisfied

[Q] Given AGCCGGCAUGGUCCCAGCCUCCUCGCUGGCGCCGGCUGGGCAACAUUCCGAGGGGACCGUCCCCUCGGUAAUGGCGGAUGGGACCCA , state whether its self-cleavage is at least 0.3.
[A] Not satisfied

[Q] Given GGCCGGCAUGGUCCCAGCCUCCUCGCUGGCGCCGGCCGGGCAACAUUCCGAGGGGACCGUCCCCUCGGUAAUGGCGAAGGGGACCCA , state whether its self-cleavage is at least 0.3.
[A] Satisfied

[Q] Given GCCCGGCAUGGUCCCAGCCACCUCGCUGGCGCCGGCUGGGCAACAUUCCGAGGGGACCGUCCCCUCGGUAAUGGCGAAUGGGACCCA , state whether its self-cleavage is at least 0.3.
[A] Not satisfied

[Q] Given GGCCGGCAUGGUCCCAGCCUCCUCGCUGGCGCCGGCUGGGCAACAUUCCGAGGGGACCUUCCCCUCGGUAAUGGCGAAUGGGACGCA , state whether its self-cleavage is at least 0.3.
[A] Satisfied

[Q] Given GUCCGGCAUGGUCCCCGCCUCCUCGCUGGCGCCGGCUGGGCAACAUUCCGAGGGGACCGUCCCCUCGGUAAUGGCGAAUGGGACCCA , state whether its self-cleavage is at least 0.3.
[A] Not satisfied

[Q] Given GGCCGGCAUGGUCCCAGCCUCCUCGCUGGCGCCGGCUGGGCAACAUUCCGGGGGGACCGUCCCCUCGGUACUGGCGAAUGGGACCCA , state whether its self-cleavage is at least 0.3.
[A] Satisfied

[Q] Given GGCCGGCAUGGUCCCAGCCUCCUGGCUGGCGCCGGCUGGGCAACAGUCCGAGGGGACCGUCCCCUCGGUAAUGGCGAAUGGGACCCA , state whether its self-cleavage is at least 0.3.
[A] Not satisfied

Cited source for all entries: the RNAGym collection of RNA variant scans (doi:10.7554/elife.80360)
